# assay_info: protein stability index of a GFP-peptide fusion (yeast GPS) (PSI 1-4); higher = more stable; sorted into four equal gates, so the index is relative within each strain
# measurement_conditions: ubr1∆
measure_name: protein stability index

>>> print(df.to_string())
                             seq_text  result_value
0          YFWHKIWRKVPGDVLDK [SNU114]          1.22
1            TLNSRALSGLYYKNFHN [SNM1]             2
2  KINDESSIDKKSSILTV [YML103C/NUP188]          2.52
3            PSNSTTTLHGPGFQLPN [SRB8]          2.91
4             EHIIRDVHNGYILRYLH [COB]             2
5            SDIESLEALMDILLCYQ [SRB8]          2.29
6            LIKKPLTVFYAIKKFKT [SSN3]          1.42
7            NELLKCKDDVQLQKILE [MTW1]          3.04
8            LLHVAVSDSNDDVRRAA [RPN2]          3.13
9            NGCIFTLNPKTGHLFLK [PRP8]          2.97

All figures here come from the supplement of paper PMC9732359.
